Entry source: patent US9475842B2

Test system: MCF7
test-method-notes: Monolayer assay (CCK-8 cytotoxicity)
Format: cell-based
details: Homo sapiens, Table 6, read-out: IC50 (μM) in different cancer cell lines: MCF7
Source text: The assays were designed as in the reference, BMC Cancer, 2010, 10, 610, 1-11; the disclosure of which is incorporated by reference for the teaching of the assay. […]
Sorting guide: entries reporting IC50 beneath 0.07 µM go in the fulfilled pile, the rest go in the not fulfilled pile.

Below, 3 compounds whose answers are already recorded.
1) CC(C)CC1CCC(O)(C(C)(O)C(=O)NC2C(=O)N3NCCCC3C(=O)NC(C)C(=O)NCC(=O)N3NCCCC3C(=O)NC(C)C(=O)OC2C(C)C)OC1C (centres unmarked) :: not fulfilled
2) CON1C(=O)C2CCCNN2C(=O)C(NC(=O)C(C)(O)C2(O)CCC(CC(C)C)C(C)O2)C(C(C)C)OC(=O)C(C)N(OC)C(=O)C2CCCNN2C(=O)CNC(=O)C1C (centres unmarked) :: not fulfilled
3) CC(C)CC1CCC(O)(C(C)(O)C(=O)NC2C(=O)N3NCCCC3C(=O)N(OC(=O)CCNC(=O)OCc3ccccc3)C(C)C(=O)NCC(=O)N3NCCCC3C(=O)N(O)C(C)C(=O)OC2C(C)C)OC1C (centres unmarked) :: fulfilled

Please examine the following record next.
Below 0.07 µM on IC50? Entry CC(C)CC1CCC(O)(C(C)(O)C(=O)NC2C(=O)N3N=CCCC3C(=O)N(O)C(C)C(=O)NCC(=O)N3N=CCCC3C(=O)N(O)C(C)C(=O)OC2C(C)C)OC1C (centres unmarked)
fulfilled
